Listed here are molecules together with their documented Cyclization Index (CI).
system tested: Dipeptidyl peptidase IV (Homo sapiens, UniProt P27487)
Construct: Dipeptidyl peptidase IV was purified from human placenta; from tissue; host or cells: human placenta
Sequence (P27487 whole entry): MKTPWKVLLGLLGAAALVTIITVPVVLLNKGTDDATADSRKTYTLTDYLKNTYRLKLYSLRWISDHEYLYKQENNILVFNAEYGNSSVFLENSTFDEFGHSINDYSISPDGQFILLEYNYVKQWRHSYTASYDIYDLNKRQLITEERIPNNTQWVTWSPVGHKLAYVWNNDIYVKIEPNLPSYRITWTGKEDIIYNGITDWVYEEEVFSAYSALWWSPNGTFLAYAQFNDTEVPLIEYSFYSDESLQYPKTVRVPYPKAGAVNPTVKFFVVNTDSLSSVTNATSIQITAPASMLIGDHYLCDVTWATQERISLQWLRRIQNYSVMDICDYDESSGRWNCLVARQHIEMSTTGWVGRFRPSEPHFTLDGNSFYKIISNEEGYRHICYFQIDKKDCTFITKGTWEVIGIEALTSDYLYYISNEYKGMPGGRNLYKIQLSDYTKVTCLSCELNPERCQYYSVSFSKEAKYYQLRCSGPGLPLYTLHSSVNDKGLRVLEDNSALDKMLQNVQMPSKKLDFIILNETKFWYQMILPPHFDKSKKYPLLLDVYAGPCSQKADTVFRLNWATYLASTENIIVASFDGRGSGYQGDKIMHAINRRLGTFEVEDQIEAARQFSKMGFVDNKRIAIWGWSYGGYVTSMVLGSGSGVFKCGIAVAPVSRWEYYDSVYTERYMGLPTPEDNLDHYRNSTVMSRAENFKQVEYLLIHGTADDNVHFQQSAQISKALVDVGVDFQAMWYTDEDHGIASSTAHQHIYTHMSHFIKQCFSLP
protocol description: DPP IV inhibition assay (chromogenic substrate Ala-Pro-p-nitroanalide)
Format: biochemical
assay conditions: Xaa-N(Methyl)-boroGly series; ratio of the IC50 at pH 8 and the IC50 at pH 2

# molecule, Cyclization Index (CI)
measured = [
    ("CSCC[C@H](N)C(=O)N(C)CB(O)O [Met, H-(S)-Met-boroSar]", "<100"),
    ("C[C@@H](O)[C@H](N)C(=O)N(C)CB(O)O [Thr, H-(S)-Thr-boroSar]", "<100"),
    ("CN(CB(O)O)C(=O)CNC(C)(C)C [N-t-Butyl-Gly, H-N-(tBu)-Gly-boroSar]", "<1"),
]

// switching to the query molecule
Query block: Which measured Cyclization Index (CI) value corresponds to CC(C)(C)C(N)C(=O)O (stereo not shown) [t-Butyl-Gly] ?
Result block: <1

###

system tested: Dipeptidyl peptidase IV (Homo sapiens, UniProt P27487)
Construct: Dipeptidyl peptidase IV was purified from human placenta; from tissue; host or cells: human placenta
protocol description: DPP IV inhibition assay (chromogenic substrate Ala-Pro-p-nitroanalide)
Assay type: biochemical
assay conditions: Xaa-N(Methyl)-boroGly series; inhibitor stock equilibrated overnight at pH 8.0 (HEPES buffer); 10 min incubation with enzyme; assay 25° C.; read-out: IC50 (pH 8)
Procedure: Dipeptidyl peptidase IV was purified from human placenta. Assays were performed at room temperature (25° C.) in 100 mM HEPES, pH 8.0, 0.14 M NaCl with the chromogenic substrate Ala-Pro-p-nitroanalide (Bachem) using a Molecular Devices SPECTRAmax 340PC^384 microtiter plate reader Inhibitor stocks (1 mg/mL) were prepared in 0.01 N HCl solution for pH 2.0 and in pH 8.0 HEPES buffer for pH 8.0. […] The absorbance at 410 nm was measured 30 minutes after addition of the substrate. […]
pIC50: −log10 of the molar value.
Listed here are molecules together with their documented pIC50.

Some solved cases for reference:
# molecule, pIC50
data = [
    ("CN(CB(O)O)C(=O)CNC(C)(C)C [N-t-Butyl-Gly, H-N-(tBu)-Gly-boroSar]", "> 6.82"),
    ("CSCC[C@H](N)C(=O)N(C)CB(O)O [Met, H-(S)-Met-boroSar]", "> 4.60"),
    ("C[C@@H](O)[C@H](N)C(=O)N(C)CB(O)O [Thr, H-(S)-Thr-boroSar]", "> 4.30"),
]

// switching to the query molecule
Query block: Which measured pIC50 value corresponds to CC(C)(C)C(N)C(=O)O (stereo not shown) [t-Butyl-Gly] ?
Result block: > 6.82

###

system tested: Dipeptidyl peptidase IV (Homo sapiens, UniProt P27487)
Construct: Dipeptidyl peptidase IV was purified from human placenta; from tissue; host or cells: human placenta
protocol description: DPP IV inhibition assay (chromogenic substrate Ala-Pro-p-nitroanalide)
Format: biochemical
assay conditions: Xaa-N(Methyl)-boroGly series; inhibitor stock equilibrated overnight at pH 2.0 (0.01 N HCl); 10 min incubation with enzyme; assay 25° C., HEPES pH 8.0; read-out: IC50 (pH 2)
pIC50: −log10 of the molar value.
observable: pIC50

Some solved cases for reference:
# molecule, observable, result
measured = [
    ("CSCC[C@H](N)C(=O)N(C)CB(O)O [Met, H-(S)-Met-boroSar]", "pIC50", "> 6.40"),
    ("CC(C)(C)C(N)C(=O)O (stereo not shown)", "pIC50", "> 6.82"),
    ("C[C@@H](O)[C@H](N)C(=O)N(C)CB(O)O [Thr, H-(S)-Thr-boroSar]", "pIC50", "> 6.15"),
]

// switching to the query molecule
Query block: Which measured pIC50 value corresponds to `CN(CB(O)O)C(=O)CNC(C)(C)C` ?
Result block: > 6.82

These data points were gathered from patent US20100105629A1.
